Where do the numbers come from? From PubChem BioAssay AID2060882.

# Test system: 898857-211-R-J1-PDC complex spheroids, growth % test/control;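 also: spheroids exposed to compound for seven days before readout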
# experiment_description: Anticancer human tumor 898857-211-R-J1-PDC patient-derived melanoma cell line growth inhibition [RAS]
# measurement_conditions: curve of first compound; second compound 3.16 µM
Would you kindly list IC50 for each of these molecules?

## Task Fetch value of IC50 on 898857-211-R-J1-PDC complex spheroids, growth % test/control for Cc1nc(N2CCC3(CC2)COC(C)C3N)c(CO)nc1Sc1ccnc(N)c1Cl (stereo not drawn) + C#Cc1c(F)ccc2cc(O)cc(-c3ncc4c(N5CC6CCC(C5)N6)nc(OCC56CCCN5CC(F)C6)nc4c3F)c12 .
## Result > 10 µM

## Task Fetch value of IC50 on 898857-211-R-J1-PDC complex spheroids, growth % test/control for CC(Nc1ccc2c(c1)OCCn1cc(N3C(=O)OCC3C(F)F)nc1-2)C(N)=O (stereo not drawn) + C#Cc1c(F)ccc2cc(O)cc(-c3ncc4c(N5CC6CCC(C5)N6)nc(OCC56CCCN5CC(F)C6)nc4c3F)c12 .
## Result > 10 µM

## Task Fetch value of IC50 on 898857-211-R-J1-PDC complex spheroids, growth % test/control for C=CC(=O)Nc1cc(Nc2nccc(-c3cn(C)c4ccccc34)n2)c(OC)cc1N(C)CCN(C)C + C#Cc1c(F)ccc2cc(O)cc(-c3ncc4c(N5CC6CCC(C5)N6)nc(OCC56CCCN5CC(F)C6)nc4c3F)c12 .
## Result 0.778 µM
